Below, each entry is listed with its recorded IC50.
tested-target: IRAK4 auto-phosphorylation (Homo sapiens (Human), UniProt Q9NWZ3)
Sequence (Q9NWZ3 whole entry): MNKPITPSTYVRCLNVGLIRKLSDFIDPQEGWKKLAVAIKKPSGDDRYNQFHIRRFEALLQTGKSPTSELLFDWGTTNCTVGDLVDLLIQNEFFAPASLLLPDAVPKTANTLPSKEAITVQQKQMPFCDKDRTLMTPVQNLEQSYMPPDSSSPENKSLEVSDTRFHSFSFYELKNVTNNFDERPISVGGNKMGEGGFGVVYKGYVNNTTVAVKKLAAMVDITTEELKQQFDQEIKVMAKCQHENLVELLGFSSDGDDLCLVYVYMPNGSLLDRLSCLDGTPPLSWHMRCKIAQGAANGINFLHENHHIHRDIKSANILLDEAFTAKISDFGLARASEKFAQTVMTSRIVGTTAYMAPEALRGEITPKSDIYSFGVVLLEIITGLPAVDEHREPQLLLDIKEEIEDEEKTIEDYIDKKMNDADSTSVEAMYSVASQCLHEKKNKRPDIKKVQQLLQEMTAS
method-description: IRAK4 phosphorylation cell assay in IL-1β-stimulated Karpas-299 cells
setup-conditions: IL-1β 22.7 ng/mL, pIRAK4 (Thr345/Ser346), geometric mean of at least 2 experiments

# compound, IC50, nM
data = [
    ("O=C(Nc1cnn2cccnc12)c1cc2cn([C@H]3CCC[C@H](O)C3)nc2cc1OC1CC1 (single isomer, unassigned) [Example 20]", 35),
    ("COc1cc2nn([C@H]3CCC[C@@](C)(O)C3)cc2cc1C(=O)Nc1cnn2cccnc12 (single isomer, unassigned) [Example 50]", 84),
    ("COc1cc2nn([C@H]3CCC(N(C)C(C)=O)C[C@@H]3C)cc2cc1C(=O)Nc1cnn2cccnc12 (single isomer, unassigned) [Example 62]", 185),
]
